Data provenance: patent US8097733B2

# Tested on: human whole blood (leukotriene and prostaglandin levels)
# Assay Summary: Eicosanoid production from human whole blood
# Type: cell-based
# Settings: human whole blood stimulated with calcium ionophore A23187 and arachidonic acid; ELISA
Observable: IC50 (nM)

Take a look at these entries with their results.
Challenge: I am curious: what IC50 value has been reported for `CNC(=O)C1(c2cccc(Sc3ccc(-c4ccnn4C)cc3)c2F)CCOCC1` ?
Response given: 962

Challenge: I am curious: what IC50 value has been reported for `C[C@H]1C[C@@](C(N)=O)(c2cc(F)cc(Sc3ccc(-c4ccnn4C)c(F)c3)c2)CCO1` ?
Response given: 232

Challenge: I am curious: what IC50 value has been reported for `C[C@H]1C[C@@](C(N)=O)(c2cccc(Sc3ccc(C(=O)c4ccnn4C)cc3)c2F)CCO1` ?
Response given: 407

Challenge: I am curious: what IC50 value has been reported for `COc1cc(C(=O)c2ccnn2C)ccc1Sc1cccc(C2(C(N)=O)CCOCC2)c1` ?
Response given: 3130

Challenge: I am curious: what IC50 value has been reported for `CNC(=O)C1(c2cccc(Sc3ccc(C(=O)c4ccnn4C)c(OC)c3)c2)CCOCC1` ?
Response given: 8270

1 = NC(=O)C1(c2cccc(Sc3ccc(-c4ccnn4CC4CC4)cc3)c2)CCOCC1
2 = Cn1nccc1-c1ccc(Sc2cccc(C3(C(N)=O)CCOCC3)c2)cc1Cl
Challenge: Sorting ascending by IC50, which comes first: 1 or 2 ? Selection: enter the item's label.
Response given: 2
(2: 76.5 nM, 1: 225 nM)

----------
# Study System: recombinant human 5-LOX (Homo sapiens)
# Assay Summary: Fluorescence Intensity 5-LOX Enzyme Assay
# Settings: crude lysate of recombinant human 5-LOX; highest inhibitor concentration tested typically 25 μM
Observable: IC50 (nM)

Challenge: I am curious: what IC50 value has been reported for `C[C@H]1C[C@@](C(N)=O)(c2ccc(F)c(Sc3ccc(-c4ccnn4C)cc3)c2)CCO1` ?
Response given: 39.8

Challenge: I am curious: what IC50 value has been reported for `Cn1nccc1C(=O)c1ccc(Sc2cccc(C3(C(N)=O)CCOCC3)c2)cc1C#N` ?
Response given: 469

Challenge: I am curious: what IC50 value has been reported for `Cn1ncc(Br)c1-c1ccc(Sc2cccc(C3(C(N)=O)CCOCC3)c2)cc1` ?
Response given: 108

Challenge: I am curious: what IC50 value has been reported for `C[C@H]1C[C@](C(N)=O)(c2cccc(Sc3ccc(-c4ccnn4C)cc3)c2F)CCO1` ?
Response given: 3310

Challenge: I am curious: what IC50 value has been reported for `Cn1nccc1C(=O)c1ccc(Sc2cccc(C3(C(N)=O)CCOCC3)c2)cn1` ?
Response given: 1590

I = Cn1nccc1C(=O)c1ccc(Sc2cccc(C3(C(N)=O)CCOCC3)c2)c(Cl)c1
II = C[C@H]1C[C@@](C(N)=O)(c2cc(F)cc(Sc3ccc(-c4ccnn4C)c(F)c3)c2)CCO1
Challenge: Sorting ascending by IC50, which comes first: I or II ? Selection: enter the item's label.
Response given: II

1 = Cn1nccc1-c1ccc(Sc2cccc(C3(C(N)=O)CCOCC3)c2)c(F)c1
2 = C[C@H]1C[C@@](C#N)(c2cc(F)cc(Sc3ccc(-c4ccnn4C)c(F)c3)c2)CCO1
Challenge: Sorting ascending by IC50, which comes first: 1 or 2 ? Selection: enter the item's label.
Response given: 2

P = C[C@@H]1C[C@@](C#N)(c2cccc(Sc3ccc(-c4ccnn4C)cc3)c2)CCO1
Q = Cn1ncc(Br)c1-c1ccc(Sc2cccc(C3(C(N)=O)CCOCC3)c2)cc1F
R = NC(=O)C1(c2cccc(Sc3ccc(-c4ccnn4CC4CC4)cc3)c2)CCOCC1
S = CCNC(=O)C1(c2cccc(Sc3ccc(-c4ccnn4C)cc3)c2)CCOCC1
Challenge: Arrange items by their IC50 values in increasing order. Please respond by ranking the labels in the order requested.
Response given: R, Q, S, P

----------
# System: human whole blood (leukotriene and prostaglandin levels)
# Assay Summary: Eicosanoid production from human whole blood
# Assay type: cell-based
# Settings: human whole blood stimulated with calcium ionophore A23187 and arachidonic acid; ELISA
pIC50: −log10 of the molar value.
Observable: pIC50

a = CNC(=O)C1(c2cccc(Sc3ccc(-c4ccnn4C)cc3)c2Cl)CCOCC1
b = Cn1nccc1C(=O)c1ccc(Sc2cccc(C3(C(N)=O)CCOCC3)c2)cc1C(F)(F)F
c = Cn1nccc1Oc1ncc(Sc2cccc(C3(C(N)=O)CCOCC3)c2F)cc1Cl
Challenge: Descending sort on pIC50 required. Please respond by ranking the labels in the order requested.
Response given: b, a, c
(b: 6.40, a: 5.91, c: 5.67)

a = Cn1nccc1-c1ccc(Sc2cccc(C3(C(N)=O)CCOCC3)c2)c(C#N)c1
b = C[C@H]1C[C@@](C(N)=O)(c2cccc(Sc3ccc(-c4ccnn4C)cc3)c2F)CCO1
Challenge: Sorting ascending by pIC50, which comes first: a or b ? Selection: enter the item's label.
Response given: a

----------
# System: eicosanoid production in the rat air pouch
# Assay Summary: Carrageenan-induced eicosanoid production in the rat air pouch
# Format: in vivo
# Settings: po, male Lewis rats, 3 mpk by gavage 1 hour prior to carrageenan
Below, each entry is listed with its recorded inhibition at 3 mg/kg.
The reply should be a number in %, with the unit left off.

Take a look at these entries with their results.
Challenge: I am curious: what inhibition at 3 mg/kg value has been reported for `Cn1nccc1C(=O)c1ccc(Sc2cccc(C3(C(N)=O)CCOCC3)c2)cc1` ?
Response given: 99.5

Challenge: I am curious: what inhibition at 3 mg/kg value has been reported for `Cn1ncc(Cl)c1-c1ccc(Sc2cccc(C3(C(N)=O)CCOCC3)c2)cc1` ?
Response given: 62

Challenge: I am curious: what inhibition at 3 mg/kg value has been reported for `C[C@H]1C[C@@](C(N)=O)(c2cccc(Sc3ccc(C(=O)c4ccnn4C)cc3)c2)CCO1` ?
Response given: 66

Others:
Challenge: I am curious: what inhibition at 3 mg/kg value has been reported for `Cn1nccc1Cc1ccc(Sc2cccc(C3(C(N)=O)CCOCC3)c2)cc1F` ?
Response given: 76

Challenge: I am curious: what inhibition at 3 mg/kg value has been reported for `Cn1nccc1-c1ccc(Sc2cccc(C3(C#N)CCOCC3)c2F)cc1` ?
Response given: 38

Challenge: I am curious: what inhibition at 3 mg/kg value has been reported for `C[C@H]1C[C@@](C#N)(c2ccc(F)c(Sc3ccc(-c4ccnn4C)cc3)c2)CCO1` ?
Response given: 32

----------
# Study System: recombinant human 5-LOX (Homo sapiens)
# Assay Summary: Fluorescence Intensity 5-LOX Enzyme Assay
# Settings: crude lysate of recombinant human 5-LOX; highest inhibitor concentration tested typically 25 μM
pIC50: −log10 of the molar value.
Observable: pIC50

Take a look at these entries with their results.
Challenge: I am curious: what pIC50 value has been reported for `Cn1nccc1-c1ccc(Sc2cccc(C3(C(N)=O)CCOCC3)c2F)cc1` ?
Response given: 6.90

Challenge: I am curious: what pIC50 value has been reported for `C[C@H]1C[C@@](C#N)(c2cccc(Sc3ccc(-c4ccnn4C)c(F)c3)c2)CCO1` ?
Response given: 6.95

1 = COc1cc(C(=O)c2ccnn2C)ccc1Sc1cccc(C2(C(N)=O)CCOCC2)c1
2 = Cn1nccc1-c1ccc(Sc2cccc(C3(C#N)CCOCC3)c2F)c(F)c1
Challenge: Sorting ascending by pIC50, which comes first: 1 or 2 ? Selection: enter the item's label.
Response given: 1
(1: 6.13, 2: 7.08)

a = C[C@H]1C[C@@](C(N)=O)(c2ccc(F)c(Sc3ccc(-c4ccnn4C)cc3)c2F)CCO1
b = Cn1nccc1-c1ccc(Sc2cccc(C3(C(N)=O)CCOCC3)c2)c(C#N)c1
Challenge: Sorting ascending by pIC50, which comes first: a or b ? Selection: enter the item's label.
Response given: b

I = Cn1nccc1-c1ccc(Sc2cccc(C3(C(N)=O)CCOCC3)c2Cl)cc1
II = Cn1nccc1C(=O)c1ccc(Sc2cccc(C3(C(N)=O)CCOCC3)c2)cc1C(F)(F)F
III = C[C@H]1C[C@@](C#N)(c2cccc([S+]([O-])c3ccc(-c4ccnn4C)cc3)c2F)CCO1 (some centres unmarked)
Challenge: Please list these compounds in decreasing order of pIC50. Please respond by ranking the labels in the order requested.
Response given: II, III, I

----------
# Study System: recombinant human 5-LOX (Homo sapiens)
# Sequence (P09917 1-674): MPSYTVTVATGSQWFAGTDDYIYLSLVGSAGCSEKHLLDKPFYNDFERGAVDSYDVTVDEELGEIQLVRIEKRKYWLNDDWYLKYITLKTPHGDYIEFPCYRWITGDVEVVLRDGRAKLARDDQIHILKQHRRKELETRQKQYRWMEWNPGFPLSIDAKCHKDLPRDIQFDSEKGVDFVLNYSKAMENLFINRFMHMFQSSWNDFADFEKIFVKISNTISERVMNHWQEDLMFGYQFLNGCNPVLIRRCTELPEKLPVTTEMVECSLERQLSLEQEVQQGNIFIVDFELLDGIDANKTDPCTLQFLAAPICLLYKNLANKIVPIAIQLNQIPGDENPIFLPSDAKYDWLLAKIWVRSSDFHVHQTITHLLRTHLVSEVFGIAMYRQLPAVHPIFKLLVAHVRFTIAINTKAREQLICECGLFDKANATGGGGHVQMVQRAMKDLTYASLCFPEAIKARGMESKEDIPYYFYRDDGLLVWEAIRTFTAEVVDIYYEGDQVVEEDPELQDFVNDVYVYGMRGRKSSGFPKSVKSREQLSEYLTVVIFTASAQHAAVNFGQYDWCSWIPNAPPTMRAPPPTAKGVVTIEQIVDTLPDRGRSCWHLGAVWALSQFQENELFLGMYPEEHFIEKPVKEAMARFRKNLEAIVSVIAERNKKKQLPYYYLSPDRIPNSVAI
# Assay Summary: Fluorescence Intensity 5-LOX Enzyme Assay
# Settings: crude lysate of recombinant human 5-LOX; highest inhibitor concentration tested typically 25 μM
Observable: IC50 (nM)

Challenge: I am curious: what IC50 value has been reported for C[C@H]1C[C@@](C(N)=O)(c2cccc(Sc3ccc(-c4c(Br)cnn4C)cc3)c2F)CCO1 [Example 73] ?
Response given: 13.4

Challenge: I am curious: what IC50 value has been reported for Cn1nccc1C(=O)c1cc(F)c(Sc2cccc(C3(C(N)=O)CCOCC3)c2)cc1F [Example 63] ?
Response given: 256

Challenge: I am curious: what IC50 value has been reported for C[C@H]1C[C@@](C#N)(c2cccc(Sc3ccc(C(=O)c4ccnn4C)cc3)c2F)CCO1 [Example 53] ?
Response given: 65.7

Challenge: I am curious: what IC50 value has been reported for Cn1nccc1-c1ccc(Sc2cccc(C3(C#N)CCOCC3)c2)cc1F [Example 46] ?
Response given: 4130

Challenge: I am curious: what IC50 value has been reported for C[C@H]1C[C@@](C#N)(c2ccc(F)c(Sc3ccc(-c4ccnn4C)cc3)c2)CCO1 [Example 24] ?
Response given: 692

a = Cn1nccc1-c1ccc(Sc2cc(F)cc(C3(C(N)=O)CCOCC3)c2F)cc1 [19(10)]
b = Cn1nccc1-c1ccc(Sc2cccc(C3(C#N)CCOCC3)c2)cc1 [Example 49]
c = CNC(=O)C1(c2cccc(Sc3ccc(-c4ccnn4C)cc3)c2F)CCOCC1 [Example 17]
Challenge: Arrange items by their IC50 values in increasing order. Please respond by ranking the labels in the order requested.
Response given: a, c, b
(a: 50.5 nM, c: 146 nM, b: 2710 nM)
